Target: DPP-IV (Homo sapiens)
Sequence (P27487 whole entry, species assumed): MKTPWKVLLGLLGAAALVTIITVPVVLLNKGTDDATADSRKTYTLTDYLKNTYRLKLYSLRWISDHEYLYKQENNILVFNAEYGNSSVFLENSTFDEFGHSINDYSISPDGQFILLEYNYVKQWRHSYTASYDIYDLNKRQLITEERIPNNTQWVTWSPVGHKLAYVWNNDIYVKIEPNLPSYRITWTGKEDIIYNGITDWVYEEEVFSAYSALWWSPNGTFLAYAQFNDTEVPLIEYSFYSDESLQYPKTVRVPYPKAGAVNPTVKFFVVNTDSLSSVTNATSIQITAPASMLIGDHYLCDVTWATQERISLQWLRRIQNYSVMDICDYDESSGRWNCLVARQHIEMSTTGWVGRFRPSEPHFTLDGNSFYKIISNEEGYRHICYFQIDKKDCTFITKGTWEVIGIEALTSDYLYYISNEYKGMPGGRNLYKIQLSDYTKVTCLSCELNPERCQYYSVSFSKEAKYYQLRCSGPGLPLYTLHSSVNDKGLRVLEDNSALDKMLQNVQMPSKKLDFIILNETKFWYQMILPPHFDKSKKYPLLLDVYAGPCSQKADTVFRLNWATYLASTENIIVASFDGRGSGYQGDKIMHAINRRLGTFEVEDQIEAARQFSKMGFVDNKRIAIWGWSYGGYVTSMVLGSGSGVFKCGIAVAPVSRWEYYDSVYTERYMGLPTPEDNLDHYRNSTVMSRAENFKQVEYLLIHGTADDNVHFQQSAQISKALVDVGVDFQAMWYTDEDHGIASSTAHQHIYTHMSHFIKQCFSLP
Peptide text beside a SMILES is read from it.
Metric Name: IC50 (mM)

The cases that follow already have their IC50 on record.
Query :: Entry C[C@H](NC(=O)[C@H](CCCNC(=N)N)NC(=O)[C@H](CC(=O)O)NC(=O)[C@H](Cc1ccccc1)NC(=O)[C@H](Cc1ccc(O)cc1)NC(=O)[C@@H](N)CO)C(=O)O [SA-6, Ser-Tyr-Phe-Asp-Arg-Ala] (H-SYFDRA-OH; N-terminus and C-terminus assumed) has what IC50?
Result :: 11

Query :: Moving on to the next compound: CC[C@H](C)[C@H](N)C(=O)N[C@@H](C)C(=O)N[C@@H](CO)C(=O)N[C@@H](Cc1ccc(O)cc1)C(=O)N[C@@H](Cc1ccccc1)C(=O)N[C@@H](CC(=O)O)C(=O)N[C@@H](CCCNC(=N)N)C(=O)O [IR-7, Ile-Ala-Ser-Tyr-Phe-Asp-Arg] (H-IASYFDR-OH; N-terminus and C-terminus assumed)
Result :: 1.04

[1] CC(C)[C@H](N)C(=O)N[C@@H](C)C(=O)N[C@@H](Cc1ccccc1)C(=O)NCC(=O)N[C@@H](CCCNC(=N)N)C(=O)N[C@@H](Cc1ccccc1)C(=O)O [VF-6, Val-Ala-Phe-Gly-Arg-Phe] (H-VAFGRF-OH; N-terminus and C-terminus assumed)
[2] CC(C)C[C@H](NC(=O)[C@H](Cc1ccc(O)cc1)NC(=O)[C@H](Cc1ccc(O)cc1)NC(=O)CN)C(=O)N[C@@H](CCCNC(=N)N)C(=O)O [GR-5, Gly-Tyr-Tyr-Leu-Arg] (H-GYYLR-OH; N-terminus and C-terminus assumed)
Query :: Which numeric IC50 is bigger, that of 1 or that of 2 ? # respond with the chosen item's label
Result :: 2
